system: Escherichia coli; assay: Antimicrobial activity against Escherichia coli JM109 transformant harboring pSTV28 plasmid expressing aac(6')-Iaf wild type gene by microdilution method; type: functional
reported property: MIC (µg/mL)
Answer format: numeric, µg/mL implied, no suffix.

compound | system tested | reported property | u | value reported
NC[C@@H]1O[C@H](O[C@H]2[C@@H](O)[C@H](O[C@@H]3[C@@H](O)[C@H](N)C[C@H](N)[C@H]3O[C@H]3O[C@H](CN)[C@@H](O)[C@H](O)[C@H]3N)O[C@@H]2CO)[C@H](N)[C@@H](O)[C@@H]1O [FRAMYCETIN] | Escherichia coli | MIC | µg/mL | 4
NC[C@H]1O[C@H](O[C@H]2[C@H](O)[C@@H](O[C@H]3O[C@H](CO)[C@@H](O)[C@H](N)[C@H]3O)[C@H](N)C[C@@H]2N)[C@H](N)C[C@@H]1O [TOBRAMYCIN] | Escherichia coli | MIC | µg/mL | 4
NCC[C@H](O)C(=O)N[C@@H]1C[C@H](N)[C@@H](O[C@H]2O[C@H](CN)CC[C@H]2N)[C@H](O)[C@H]1O[C@H]1O[C@H](CO)[C@@H](O)[C@H](N)[C@H]1O [ARBEKACIN] | Escherichia coli | MIC | µg/mL | 4
CN[C@@H]1[C@@H](O)[C@@H](O[C@@H]2[C@@H](O)[C@H](O[C@H]3OC(CN)=CC[C@H]3N)[C@@H](N)C[C@H]2N)OC[C@]1(C)O [SISOMICIN] | Escherichia coli | MIC | µg/mL | 1
CCN[C@@H]1C[C@H](N)[C@@H](O[C@H]2OC(CN)=CC[C@H]2N)[C@H](O)[C@H]1O[C@H]1OC[C@](C)(O)[C@H](NC)[C@H]1O [NETILMICIN] | Escherichia coli | MIC | µg/mL | 8
NCC[C@H](O)C(=O)N[C@@H]1C[C@H](N)[C@@H](O[C@H]2O[C@H](CN)[C@@H](O)[C@H](O)[C@H]2O)[C@H](O)[C@H]1O[C@H]1O[C@H](CO)[C@@H](O)[C@H](N)[C@H]1O [AMIKACIN] | Escherichia coli | MIC | µg/mL | 16
NC[C@H]1O[C@H](O[C@H]2[C@H](O)[C@@H](O[C@H]3O[C@H](CO)[C@@H](O)[C@H](N)[C@H]3O)[C@H](N)C[C@@H]2N)[C@H](O)[C@@H](O)[C@@H]1O [KANAMYCIN] | Escherichia coli | MIC | µg/mL | 64
CN[C@@H]1[C@@H](O)C(O[C@@H]2[C@@H](O)[C@H](OC3O[C@H](CN)[C@@H](O)[C@H](O)[C@H]3O)[C@@H](N)C[C@H]2NC(=O)[C@@H](O)CN)OC[C@]1(C)O (some centres undefined) [ISOPAMICIN] | Escherichia coli | MIC | µg/mL | 4

Here is another compound to look at.
For NC[C@@H]1CC[C@@H](N)[C@@H](O[C@H]2[C@H](O)[C@@H](O[C@H]3O[C@H](CO)[C@@H](O)[C@H](N)[C@H]3O)[C@H](N)C[C@@H]2N)O1 [DIBEKACIN] the compound record lists MIC as 16

====

system: Pseudomonas aeruginosa; assay: Antimicrobial activity against Pseudomonas aeruginosa isolate IMCJ799 by microdilution method; type: functional
reported property: MIC (µg/mL)
Answer format: numeric, µg/mL implied, no suffix.

molecule | MIC / µg/mL
NCC[C@H](O)C(=O)N[C@@H]1C[C@H](N)[C@@H](O[C@H]2O[C@H](CN)CC[C@H]2N)[C@H](O)[C@H]1O[C@H]1O[C@H](CO)[C@@H](O)[C@H](N)[C@H]1O [ARBEKACIN] | 16
NC[C@@H]1O[C@H](O[C@H]2[C@@H](O)[C@H](O[C@@H]3[C@@H](O)[C@H](N)C[C@H](N)[C@H]3O[C@H]3O[C@H](CN)[C@@H](O)[C@H](O)[C@H]3N)O[C@@H]2CO)[C@H](N)[C@@H](O)[C@@H]1O [FRAMYCETIN] | 8
CN[C@@H]1[C@@H](O)[C@@H](O[C@@H]2[C@@H](O)[C@H](O[C@H]3OC(CN)=CC[C@H]3N)[C@@H](N)C[C@H]2N)OC[C@]1(C)O [SISOMICIN] | 32
C[C@H]1[C@H](NC(=O)/C(=N\OC(C)(C)C(=O)O)c2csc(N)n2)C(=O)N1S(=O)(=O)O [AZTREONAM] | 64
CC(C)(O/N=C(\C(=O)N[C@@H]1C(=O)N2C(C(=O)[O-])=C(C[n+]3ccccc3)CS[C@H]12)c1csc(N)n1)C(=O)O [CEFTAZIDIME] | 512
NC[C@H]1O[C@H](O[C@H]2[C@H](O)[C@@H](O[C@H]3O[C@H](CO)[C@@H](O)[C@H](N)[C@H]3O)[C@H](N)C[C@@H]2N)[C@H](N)C[C@@H]1O [TOBRAMYCIN] | 32
CCN1CCN(C(=O)N[C@@H](C(=O)N[C@@H]2C(=O)N3[C@@H]2SC(C)(C)[C@@H]3C(=O)O)c2ccccc2)C(=O)C1=O [PIPERACILLIN] | 256
C[C@@H](O)[C@H]1C(=O)N2C(C(=O)O)=C(SCCNC=N)C[C@H]12 [IMIPENEM ANHYDROUS] | 128

Here is another molecule to look at.
For NCC[C@H](O)C(=O)N[C@@H]1C[C@H](N)[C@@H](O[C@H]2O[C@H](CN)[C@@H](O)[C@H](O)[C@H]2O)[C@H](O)[C@H]1O[C@H]1O[C@H](CO)[C@@H](O)[C@H](N)[C@H]1O [AMIKACIN] the molecule record lists MIC as 128

Reference for the values: ChEMBL document CHEMBL1649468
